Study System: FGFR4 kinase domain recombinant protein (Homo sapiens)
Sequence (P22455 467-755 limits assumed): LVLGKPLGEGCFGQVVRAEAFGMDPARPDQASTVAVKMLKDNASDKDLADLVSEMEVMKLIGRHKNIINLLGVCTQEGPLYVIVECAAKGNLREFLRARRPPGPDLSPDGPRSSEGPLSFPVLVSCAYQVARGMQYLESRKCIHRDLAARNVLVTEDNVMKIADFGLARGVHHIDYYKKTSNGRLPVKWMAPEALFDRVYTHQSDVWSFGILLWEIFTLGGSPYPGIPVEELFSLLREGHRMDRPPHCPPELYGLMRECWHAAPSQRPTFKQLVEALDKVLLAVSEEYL
Experimental Protocol: FGFR4 enzyme activity at molecular level (ELISA, Poly(Glu,Tyr) 4:1 substrate)
IC50 listing for selected compounds.

compound=C=CS(=O)(=O)N1CC[C@H](n2nc(-c3cc4cc(C)cc(OC)c4s3)c3c(N)ncnc32)C1 study_system="FGFR4 kinase domain recombinant protein (Homo sapiens)" result_value="< 10 nM"
compound=C=C(CN(C)C)C(=O)N1CC(n2cc(-c3cc4cc(C)cc(OC)c4s3)c3c(N)ncnc32)C1 study_system="FGFR4 kinase domain recombinant protein (Homo sapiens)" result_value="< 10 nM"
compound=C=C(CN(CC)CC)C(=O)N1CC[C@H](n2cc(-c3cc4cc(C)cc(OC)c4s3)c3c(N)ncnc32)C1 study_system="FGFR4 kinase domain recombinant protein (Homo sapiens)" result_value="< 10 nM"

Looking up `C=CC(=O)N1CC[C@@H](n2cc(-c3cc4cc(C)cc(OC)c4s3)c3c(N)ncnc32)C1` , I see its IC50 listed as 10 to 100 nM
